system: SK-MEL-2; assay: NCI tumour cell line growth inhibition, 48 h
Active and inactive are the calls of the source. Cut-off read from the data, not from the text of the source: active = GI50 up to about 1.1 µM and inactive = higher.
Outcomes: true (1) = active, false (0) = inactive

molecule=O=C(O)CNS(=O)(=O)c1ccc(NC(=O)c2ccccc2[N+](=O)[O-])cc1 assigned_label="false (0)"
molecule=Cc1cc2nc(N3C(=O)/C(=C/c4cccc([N+](=O)[O-])c4)N=C3c3ccccc3)sc2cc1C assigned_label="false (0)"
molecule="CS(=O)(=O)OCCCCOS(C)(=O)=O [BUSULFAN]" assigned_label="false (0)"
molecule=COc1cccc(NC(=O)C(C#N)=C(SC)SC)c1 assigned_label="false (0)"
molecule=Cc1nc2cc(Nc3ccccc3C(=O)O)ccc2s1 assigned_label="false (0)"
molecule="CN(C)CC1CCC/C(=C\\c2ccc(OC(=O)/C=C/c3ccc(Cl)c(Cl)c3)cc2)C1=O (stereo not given)" assigned_label="false (0)"
molecule=O=[N+]([O-])/C(C(Cl)=C(Cl)Cl)=C(/Sc1ccccc1)N1CCOCC1 assigned_label="false (0)"
molecule=O=C(Nc1ccccc1)c1cc2c(cc1Cl)Sc1nccn1S2(=O)=O assigned_label="false (0)"
molecule=O=C(CSc1nc2ccccc2c(=O)n1-c1ccccc1)N/N=C1\C(=O)Nc2ccc(F)cc21 assigned_label="false (0)"
molecule=O=c1cc(-c2nc3ccccc3[nH]2)[nH]c2nc(-c3nc4ccccc4[nH]3)cc(-c3ccc(Cl)cc3)c12 assigned_label="false (0)"
molecule=COc1ccc2nc3ccccc3c(NCCCCN(CCCl)CCCl)c2c1 assigned_label="true (1)"
molecule=CCN(CC)CCC(=O)c1ccc(Oc2ccc(C)cc2)cc1 assigned_label="false (0)"
molecule=CCCS(=O)(=O)Nc1ccc(Nc2c3ccccc3nc3ccccc23)c(OC)c1 assigned_label="false (0)"
molecule="C=CC(C)(C)[C@@]12CC3C(=O)N[C@@H](Cc4ccccc4)C(=O)N3[C@@H]1N(C(C)=O)c1ccccc12 (stereo not given in full)" assigned_label="false (0)"
molecule=CN(C)C(=S)Nc1nnc(NC23CC4CC(CC(C4)C2)C3)s1.[O-][Cl+3]([O-])([O-])O assigned_label="false (0)"
molecule=C#CCN(N=O)C(=O)ON1C(=O)CCC1=O assigned_label="false (0)"
molecule=O=C1Cc2c(-c3ccccc3)cc(-c3ccccc3)nc2-c2ccccc2N1 assigned_label="false (0)"
molecule="CCn1cc(C(=O)O)c(=O)c2cc(F)c(N3CCNCC3)nc21 [ENOXACIN]" assigned_label="false (0)"
molecule=Cc1ccc(NC(=S)N/N=C2\C(=O)Nc3ccccc32)cc1 assigned_label="false (0)"
molecule=Cc1cc2[nH]c3c(C#N)c(-c4ccccc4)c(/C=N/c4ccc(Cl)cc4)c(=O)n3c2cc1C assigned_label="false (0)"

----------
system: XF498; assay: NCI tumour cell line growth inhibition, 48 h
Active and inactive are the calls of the source. Rule as the data show it: active = GI50 up to about 1.1 µM and inactive = higher.
Outcomes: yes (1) = active, no (0) = inactive

molecule=CC(=O)CC(=O)Nc1ccccc1C(F)(F)F assigned_label="no (0)"
molecule="Cc1ccccc1C(C#N)C(=O)C(=O)Nc1nc([N+](=O)[O-])cs1 (stereo unspecified)" assigned_label="no (0)"
molecule=CC1=C(C(=O)Nc2cc(=O)n(C)c(=O)n2C)C(c2ccc([N+](=O)[O-])cc2)C(C(=O)Nc2cc(=O)n(C)c(=O)n2C)=C(C)N1 assigned_label="no (0)"
molecule="CC(=O)c1cccc(NC(=O)C(=O)C(C(=O)NN)c2ccccc2)c1 (stereo unspecified)" assigned_label="no (0)"
molecule="O=C1C2=C(c3ccccc31)C(c1ccccc1)N1C(=O)CSC1=N2 (stereo unspecified)" assigned_label="no (0)"
molecule="O=C(c1nc2ccc(Cl)cc2nc1O)C(O)c1ccc2c(c1)OCO2 (stereo unspecified)" assigned_label="no (0)"
molecule="C/C(=N\\NC(=S)NC(CCC(=O)O)C(=O)O)c1ccccn1 (stereo unspecified)" assigned_label="no (0)"
molecule="COc1cc(/C=C2\\NC(=O)C3Cc4c(OC)c(C)c(OC)c(OC)c4C2N3C)c(OC)c(C)c1OC (stereo unspecified)" assigned_label="no (0)"
molecule=Cc1ccc(C2=[N+]([O-])c3ccccc3C2=O)cc1 assigned_label="no (0)"
molecule=O=C1CCCCN1 assigned_label="no (0)"
molecule=Clc1ccc(C[P+]2(c3ccccc3)CCCCC2)cc1.[O-][Cl+3]([O-])([O-])[O-] assigned_label="no (0)"
molecule=COC(=O)C1=CNC(C(=O)OC)=NN1 assigned_label="no (0)"
molecule="C=CC(C)(C)[C@@]12CC3C(=O)N[C@@H](Cc4ccccc4)C(=O)N3[C@@H]1N(C(C)=O)c1ccccc12 (stereo partly specified)" assigned_label="no (0)"
molecule=N#CC(C#N)=C(C(C#N)C#N)C(C#N)C#N assigned_label="no (0)"
molecule=COc1ccc2c(c1)[C@@H](NC(C)=O)CCc1cc(OC)c(OC)c(OC)c1-2 assigned_label="yes (1)"
molecule="COC(=O)CCC12CCC(=O)C1[C@@H](C(=O)OC)C[C@H]2C(=O)OC (stereo partly specified)" assigned_label="no (0)"
molecule="Cc1cc(S(=O)(=O)O)c(NC(=O)C(=O)C2C=CCS2(=O)=O)cc1Cl (stereo unspecified)" assigned_label="no (0)"
molecule="CCOC(=O)C(C(C)=O)C1CC=CC1 (stereo unspecified)" assigned_label="no (0)"
molecule="CCC1CC2C(=O)N(c3ccccc3)C(=O)C2c2[nH]c3ccccc3c21 (stereo unspecified)" assigned_label="no (0)"
molecule="O=c1[nH]c(=O)n(C2CC(O)C(CO)O2)cc1C#Cc1cc(C(F)(F)F)cc(C(F)(F)F)c1 (stereo unspecified)" assigned_label="no (0)"
molecule=COc1ccccc1-c1cc(=O)c2cc(C)c(C)c(C(=O)O)c2o1 assigned_label="no (0)"
